- Subject Of Test: AP2B1 700-937, P63010
- Sequence (P63010 700-937): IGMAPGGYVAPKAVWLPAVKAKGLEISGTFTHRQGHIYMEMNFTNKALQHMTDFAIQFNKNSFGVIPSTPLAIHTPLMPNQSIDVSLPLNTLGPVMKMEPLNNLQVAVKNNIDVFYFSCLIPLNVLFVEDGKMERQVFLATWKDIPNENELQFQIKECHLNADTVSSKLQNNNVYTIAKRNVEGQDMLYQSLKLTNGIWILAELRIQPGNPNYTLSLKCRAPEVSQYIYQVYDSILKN
Readout Kind: selected by phage display

A selection of reference data follows.
- Binder: "PWVPNWELGEPPGNAP [ZNF831, Q5JPB2]"
  Readout Kind: "selected by phage display"
  Result: "confidence 3 (active)"
- Binder: "SQEDWTTFTHDRIRQL [INPPL1, O15357]"
  Readout Kind: "selected by phage display"
  Result: "confidence 2 (active)"
- Binder: "TVGKNHEWNWAFVAFT [SLC9A2, Q9UBY0]"
  Readout Kind: "selected by phage display"
  Result: "confidence 2 (active)"
- Binder: "TESWMSPLAWLEKGVN [SPAG5, Q96R06]"
  Readout Kind: "selected by phage display"
  Result: "confidence 2 (active)"
- Binder: "PEWEVAAPWGSVGPGA [GPR179, Q6PRD1]"
  Readout Kind: "selected by phage display"
  Result: "confidence 2 (active)"
- Binder: "WPASWGFPDASSTVPS [Q96NJ1]"
  Readout Kind: "selected by phage display"
  Result: "confidence 2 (active)"

Ask: Report selected by phage display for VPVWEPQDWQQQLVNI [NTHL1, P78549] please.
Result: confidence 3 (active)

Ask: Report selected by phage display for DPGAMEPWALPTWHSW [TSPOAP1, O95153] please.
Result: confidence 2 (active)

Ask: Report selected by phage display for TGQDIAPRDSPEWVAF [FRMPD1, Q5SYB0] please.
Result: confidence 3 (active)

Source: paper PMC8769072
